# Test system: rats anesthetized with pentobarbital sodium
# methodDescription: Effects on blood pressure, heart rate, cardiac contraction and dilation in rats anesthetized with pentobarbital sodium
# Assay type: in vivo, Wistar rats
# Set-up: unit not given here
# experimentalSetup: change after injection through femoral vein; '+' = increase, all others = decrease; mean, n = 3~5; doses mg/kg: 2, 8, 12: 10; 3-7, 9-11, 40-44: 5
# Experimental: Biological activity experiment 1. The effects of 16 compounds represented by formula I on blood pressure, heart rate, cardiac contraction and dilation in rats anesthetized with pentobarbital sodium. The methods of biological activity experiment 1 were as follows: Male Wistar rats, weighing 280±30 g were purchased from the experimental animal center of Academy of Military Medical Sciences. […] Cardiac functional parameters such as HR, LVSP, +dp/dtmax, −dp/dtmax and Vpm were recorded. […]
parameterMeasured: −dp/dtmax: the maximal rate of the decrease of left ventricular pressure
A bare number is all that is needed in reply.

A selection of reference data follows.
CNC(C)C :: 124
CC(C)NC(C)C(C)C (centres unmarked) :: 226
CCC(C)N (centres unmarked) [compound 10] :: 27
CCNC(C)(C)C(C)C :: 177
CCCNC(C)(C)C(C)C :: 187

Now look at this entry.
stdin: Entry under review: CC(C)C(C)(C)N . Reported −dp/dtmax: the maximal rate of the decrease of left ventricular pressure?
stdout: 54
